Recorded growth by entry
Tested on: 786-0 renal
assay.method.text: NCI-60 one-dose screen, 48 h (100 = growth as untreated, 0 = no growth, -100 = all killed)
condition.notes: 10 µM unless noted
About 83,000 compounds went through this panel and 20% of them were active in at least one assay; those are over-represented in the sample as a whole.
Lab book: enter the figure in %, no units written.

See these solved cases before continuing.
O=[N+]([O-])CC(O)C(Cl)(Cl)Cl (stereo unspecified)    103
CCC(C)(C)[C@H](NC(=O)[C@H]1CCCCN1C)C(=O)N(C)[C@H](C[C@@H](OC(C)=O)c1nc(C(=O)N[C@@H](Cc2ccccc2)C[C@H](C)C(=O)O)cs1)C(C)C    10.8

## Task Entry O=[N+]([O-])c1cnc[nH]1 , system 786-0 renal: what growth was measured?
## Result 112

## Task Lab note: need growth with 786-0 renal for entry CC(=O)Nc1ccc(NC(=O)c2ccc([As](O)O)cc2)cc1 , please look it up.
## Result 107

## Task So what growth did COC(=O)[C@@H](NC(=O)c1cn(CCC2CCCCC2)c2ccccc12)C(C)(C)C get with 786-0 renal?
## Result 73.5

###

Test system: IGROV1 ovarian
assay.method.text: NCI-60 one-dose screen, 48 h
condition.notes: 10 µM unless noted
This is part of a sample that, as a whole, favours compounds with a hit. Of some 83,000 tested, about 20% had one in any assay. Calls of active or inactive are those of the source. How the source made its calls: active means growth percent below 10; inactive means the rest.
Answer with one of the outcomes given here: YES (active), NO (inactive)

C[C@]12CCc3sc(-c4cccc(F)c4)nc3C1=CC[C@@H]1[C@@H]2CC[C@]2(C)C(=O)CC[C@@H]12    YES
C=C1[C@@H](C)[C@H]2[C@H](Cc3ccccc3)NC(=O)[C@]23[C@@H](O)/C=C/[C@@](C)(O)C(=O)[C@@H](C)C/C=C/[C@H]3[C@@H]1O    NO

Now take the following compound into account.
## Task Check the results log: what was the call for COC1=CC(=O)O[C@@H](/C=C/c2ccc3c(c2)OCO3)C1 ?
## Result NO

###

Test system: T-47D breast
assay.method.text: NCI-60 one-dose screen, 48 h (100 = growth as untreated, 0 = no growth, -100 = all killed)
condition.notes: 10 µM unless noted
The panel holds about 83,000 compounds, 20% with a hit somewhere; the sample as a whole holds those more often. The source made the active and inactive calls. How the source made its calls: active means growth percent below 10; inactive means the rest.
quantity: growth

Solved entries (count: 3):
Nc1c(F)cc(-c2nc3cc(F)ccc3[se]2)cc1F    5.78% (active)
O=C1C(Cl)=C(N2CCOCC2)C(=O)c2ccccc21    -23% (active)
COc1cccc(C=NC(Cc2cnc[nH]2)C(=O)O)c1O (centres undefined)    108% (inactive)

## Task Would you kindly share the measured growth for CC(=O)O[C@H]1C(=O)[C@@]2(C)[C@H]([C@H](OC(=O)c3ccccc3)[C@]3(O)C[C@H](OC(=O)[C@H](OC(=O)OC[C@@H]4COC(C)(C)O4)[C@@H](NC(=O)c4ccccc4)c4ccccc4)C(C)=C1C3(C)C)[C@]1(OC(C)=O)CO[C@@H]1C[C@@H]2O ?
## Result 25.5% (inactive)

## Task // query growth value for entry O=C(Nc1ccncc1F)c1cn(CC2CC2)c2ccccc12
## Result 92.3% (inactive)

## Task Report growth for COC(=O)N[C@H]1CCc2c(Br)c(OC)c(OC)c(OC)c2-c2ccc(SC)c(=O)cc21 please.
## Result 50.5% (inactive)

## Task What measured growth goes with COc1ccc(S(=O)(=O)N(Cc2ccc3c(c2)C=CC(C)(C)O3)c2ccccc2)cc1OC ?
## Result 55.1% (inactive)

## Task // query growth value for entry C[Se]C(=O)c1ccccc1OC(C)=O
## Result 89.1% (inactive)

## Task I'd like to know its growth. The compound in question is COc1cc(C=Nc2cccc(C(=O)O)c2)ccc1N(CCCl)CCCl
## Result 96.3% (inactive)
